System: 786-0 renal
protocol-details: NCI tumour cell line growth inhibition, 48 h
Peptide text beside a SMILES is read from it. * marks the point of attachment. X26 = Clc1c(Cl)c(Cl)c(O*)c(Cl)c1Cl; Boc = CC(C)(C)OC(=O)*; OBn = c1ccc(CO*)cc1; Bn = c1ccc(C*)cc1
measured-quantity: TGI (µM)
# unit: µM | format: bare number

molecule	output-unit	TGI
O=C(c1ccccc1)c1c(CC(O)c2cccnc2)n(C(=O)c2ccccc2)c2ccccc12 (centres undefined)	µM	99.4
CC(C)c1cccc(C(C)C)c1NC(=O)C(=O)C(C(=O)c1ccccc1-c1ccccc1)C1OC(=O)c2ccccc21 (centres undefined)	µM	36.8

[Q] What value of TGI has been reported for the following molecule? CC(C)CC(NC(=O)C(CCC(=O)OCc1ccccc1)NC(=O)OC(C)(C)C)C(=O)NC(COCc1ccccc1)C(=O)NC(Cc1ccccc1)C(=O)Oc1c(Cl)c(Cl)c(Cl)c(Cl)c1Cl (centres undefined) (Boc-E(OBn)LS(Bn)F-X26; configuration not given here)
[A] 90.7

[Q] What value of TGI has been reported for the following molecule? `CSc1ccc(/C=C2\CNC/C(=C\c3ccc(SC)cc3)C2=O)cc1`
[A] 153

[Q] What value of TGI has been reported for the following molecule? `Clc1ccccc1NN(Cc1ccccn1)c1ccccc1Cl`
[A] 31.6
